- target: ActRIIA and ActRIIB (on TGFB/SMAD SBE Reporter HEK293 cells) (human)
- Sequence (chain, as listed by the source, chain 1 of 2): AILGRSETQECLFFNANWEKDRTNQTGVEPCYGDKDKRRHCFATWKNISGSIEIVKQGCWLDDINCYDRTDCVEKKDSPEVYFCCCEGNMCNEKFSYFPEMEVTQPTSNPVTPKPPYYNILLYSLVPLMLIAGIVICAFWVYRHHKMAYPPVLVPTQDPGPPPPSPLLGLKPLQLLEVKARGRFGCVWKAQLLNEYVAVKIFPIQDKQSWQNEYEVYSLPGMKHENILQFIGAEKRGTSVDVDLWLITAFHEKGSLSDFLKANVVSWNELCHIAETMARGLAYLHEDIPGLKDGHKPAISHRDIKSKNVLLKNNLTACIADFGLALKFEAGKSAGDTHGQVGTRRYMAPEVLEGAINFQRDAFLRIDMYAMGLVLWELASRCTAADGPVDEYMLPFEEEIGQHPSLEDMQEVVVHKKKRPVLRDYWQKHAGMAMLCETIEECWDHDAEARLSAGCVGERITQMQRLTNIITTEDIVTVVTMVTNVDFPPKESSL
- Sequence (chain, as listed by the source, chain 2 of 2): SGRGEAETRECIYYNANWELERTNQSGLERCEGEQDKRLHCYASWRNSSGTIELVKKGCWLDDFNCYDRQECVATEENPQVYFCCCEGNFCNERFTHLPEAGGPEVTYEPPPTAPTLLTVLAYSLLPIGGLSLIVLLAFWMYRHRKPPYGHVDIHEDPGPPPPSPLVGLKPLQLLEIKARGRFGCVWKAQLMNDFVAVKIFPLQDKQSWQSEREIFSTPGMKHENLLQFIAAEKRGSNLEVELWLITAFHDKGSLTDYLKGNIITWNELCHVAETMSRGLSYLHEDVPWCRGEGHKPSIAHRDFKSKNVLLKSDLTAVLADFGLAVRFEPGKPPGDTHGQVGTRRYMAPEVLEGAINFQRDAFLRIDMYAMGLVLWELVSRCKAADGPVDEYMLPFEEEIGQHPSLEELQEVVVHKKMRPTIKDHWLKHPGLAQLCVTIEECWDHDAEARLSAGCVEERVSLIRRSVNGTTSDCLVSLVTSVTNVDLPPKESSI
- methodNotes: cell-based or functional assay
measure: IC50, Activin SMAD RGA (nM)
Give just the number in nM; leave the unit off.

binder	quantityUnit	valueMeasured
Antibody Wurschdsalat (antibody, V domains shown, full-length IgG) VH: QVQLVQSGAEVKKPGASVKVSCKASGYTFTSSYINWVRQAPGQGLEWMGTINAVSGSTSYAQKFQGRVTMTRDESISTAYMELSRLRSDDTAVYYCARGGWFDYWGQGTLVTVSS VL: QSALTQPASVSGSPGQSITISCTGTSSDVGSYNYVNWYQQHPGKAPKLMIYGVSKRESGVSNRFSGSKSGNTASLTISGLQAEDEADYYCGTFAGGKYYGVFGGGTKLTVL	nM	0.29
Antibody Riaba (antibody, V domains shown, full-length IgG) VH: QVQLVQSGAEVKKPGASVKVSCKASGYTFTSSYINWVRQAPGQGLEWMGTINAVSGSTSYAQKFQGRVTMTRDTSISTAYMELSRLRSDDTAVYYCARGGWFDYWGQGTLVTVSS VL: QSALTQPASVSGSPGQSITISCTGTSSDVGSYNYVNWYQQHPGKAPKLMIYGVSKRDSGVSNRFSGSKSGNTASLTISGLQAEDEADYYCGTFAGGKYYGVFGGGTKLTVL	nM	0.14

// next item, IC50, Activin SMAD RGA requested
Lab note: measured IC50, Activin SMAD RGA of Fasnetsküchla Fab (Fab, V domains shown, Fab) VH: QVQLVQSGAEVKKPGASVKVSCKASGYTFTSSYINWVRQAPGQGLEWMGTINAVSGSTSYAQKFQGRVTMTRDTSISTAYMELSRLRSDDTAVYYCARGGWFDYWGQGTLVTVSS VL: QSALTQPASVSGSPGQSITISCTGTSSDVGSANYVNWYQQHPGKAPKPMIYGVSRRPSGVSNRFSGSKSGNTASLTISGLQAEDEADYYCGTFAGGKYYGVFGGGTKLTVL was 1.21
